Cited source: the supplement of paper PMC11908140

B1: library; numbered along this chain (parent)
chain: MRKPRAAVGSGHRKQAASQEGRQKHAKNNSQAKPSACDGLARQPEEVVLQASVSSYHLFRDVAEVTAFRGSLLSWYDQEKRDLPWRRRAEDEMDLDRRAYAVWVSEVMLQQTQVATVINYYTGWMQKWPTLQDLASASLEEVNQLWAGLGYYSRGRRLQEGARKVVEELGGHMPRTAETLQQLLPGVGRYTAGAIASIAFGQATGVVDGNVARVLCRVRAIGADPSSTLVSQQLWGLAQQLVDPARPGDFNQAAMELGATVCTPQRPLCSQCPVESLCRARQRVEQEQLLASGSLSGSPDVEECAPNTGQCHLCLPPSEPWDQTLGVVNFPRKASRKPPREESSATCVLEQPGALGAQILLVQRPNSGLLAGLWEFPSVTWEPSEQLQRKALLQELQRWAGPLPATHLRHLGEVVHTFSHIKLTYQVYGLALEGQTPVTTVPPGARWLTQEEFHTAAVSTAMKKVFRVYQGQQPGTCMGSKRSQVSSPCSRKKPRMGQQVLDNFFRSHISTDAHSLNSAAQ

# Variants of: B1
# ASSAY_EXPLANATION: 8OG:A repair function score (normalized; synonymous = 0, nonsense = -1) (normalized log-likelihood score); higher = more repair activity (WT-like);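 note: cells sorted at 72 h after reporter transfection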
# CONDITION: with 8OG:A DNA repair reporter (GFP) in HEK-293 MUTYH KO cells
Okay, here is how we bin by 8OG:A repair function score: bin 0 (below -0.2), bin 1 (-0.2 to below -0.05), bin 2 (-0.05 or more)

Use these answered entries as a reference point.
query: Which class holds T176G ?
result: bin 0

query: Classify this variant: V47F
result: bin 2

query: Assign a category based on measured 8OG:A repair function score for N517K and give only the class name.
result: bin 1

query: Which bin should I file V465P under?
result: bin 0

query: Which class holds P404G ?
result: bin 1

New cases:
query: Category of I509G , please.
result: bin 2

query: Categorize the following entry: K337E
result: bin 1

query: Dear colleague, I would appreciate it if you could identify the bin for R340W and reply at your convenience.
result: bin 1

query: Looking at Q43V , which class would you pick?
result: bin 2

query: Kindly identify the class of P352G .
result: bin 1
